Tested on: human PKK mRNA
Assay: Dose-dependent antisense inhibition of human PKK in HepaRG cells, 0.19-5.00 uM (Example 5)
Type: cell-based
Details: 5.00 μM, HepaRG cells, electroporation, approximately 16 hours; Table 36
Strand notation (5' to 3'): a small letter for the sugar, then the base; units joined by * are phosphorothioate-linked, units joined directly phosphodiester-linked; [ ] holds rarer units or linkages, { } end groups; capitals alone tell only the bases. e = 2'-O-(2-methoxyethyl) (MOE); [5mC] = 5-methylcytosine; d = 2'-deoxy (DNA)
Provide the reported percent inhibition of PKK at 5.00 μM of each item.
Just the number in %, nothing appended.

Recall the recorded percent inhibition of PKK at 5.00 μM for 546854 (eT*eA*eA*e[5mC]*eA*dG*dT*dA*dT*d[5mC]*dA*d[5mC]*dT*dG*dT*e[5mC]*e[5mC]*eT*eA*eT; antisense) [compound 546854] with human PKK mRNA and state it.
94

Value wanted: percent inhibition of PKK at 5.00 μM (human PKK mRNA) of entry 547617 (antisense e[5mC]*eT*eG*eT*e[5mC]*d[5mC]*dT*dA*dT*dA*dT*d[5mC]*dA*d[5mC]*dT*eG*eT*eA*e[5mC]*e[5mC]) [compound 547617]
93

What value of percent inhibition of PKK at 5.00 μM on human PKK mRNA does 547293 (antisense e[5mC]*eA*eT*e[5mC]*eT*dG*dG*d[5mC]*dA*dG*dT*dA*dT*dT*dG*eG*eG*e[5mC]*eA*eT) [compound 547293] have?
86

Query the reported percent inhibition of PKK at 5.00 μM for human PKK mRNA; item: 546826 (eA*eG*eT*eA*eT*d[5mC]*dA*d[5mC]*dT*dG*dT*dA*d[5mC]*dT*dA*eG*eT*eT*eT*e[5mC]; antisense) [compound 546826]
97

Missing value: percent inhibition of PKK at 5.00 μM, human PKK mRNA, entry 546897 (eA*eG*eT*eA*eT*d[5mC]*dA*d[5mC]*dT*dG*dT*d[5mC]*d[5mC]*dT*dA*eT*eG*eT*e[5mC]*eA; antisense) [compound 546897] . Fill in?
95

Give the reported percent inhibition of PKK at 5.00 μM for 546753 (e[5mC]*eT*eG*eG*e[5mC]*dT*d[5mC]*dA*d[5mC]*dT*dA*dT*dA*dG*dG*e[5mC]*e[5mC]*e[5mC]*e[5mC]*eA; antisense) [compound 546753] (system: human PKK mRNA).
96

API: value(readout= percent inhibition of PKK at 5.00 μM, system= human PKK mRNA, query= 548770 (antisense eT*eA*eA*e[5mC]*dA*dG*dT*dA*dT*d[5mC]*dA*d[5mC]*dT*eG*eT*e[5mC]*e[5mC]) [compound 548770] )
91

Find percent inhibition of PKK at 5.00 μM (human PKK mRNA) for the entry 531231 (eT*eA*eT*e[5mC]*eA*d[5mC]*dT*dG*dT*dA*d[5mC]*dT*dA*dG*dT*eT*eT*e[5mC]*e[5mC]*eT) [compound 531231]
98

Give percent inhibition of PKK at 5.00 μM (human PKK mRNA) of the following substance: 546986 (e[5mC]*eA*eG*eG*eA*dT*dA*dG*dA*dA*d[5mC]*dT*dG*dA*dT*eG*eG*eT*e[5mC]*e[5mC]; antisense) [compound 546986]
89

* * *

Test system: human PKK mRNA
Assay: Antisense inhibition of human PKK mRNA in HepaRG cells, 1,000 nM, MOE/deoxy/cEt oligonucleotides (Example 3)
Assay type: cell-based
Details: HepaRG cells, 1,000 nM antisense oligonucleotide, Table 29
Strand notation (5' to 3'): a small letter for the sugar, then the base; units joined by * are phosphorothioate-linked, units joined directly phosphodiester-linked; [ ] holds rarer units or linkages, { } end groups; capitals alone tell only the bases. e = 2'-O-(2-methoxyethyl) (MOE); k = constrained ethyl (cEt); [5mC] = 5-methylcytosine; d = 2'-deoxy (DNA)
Provide the recorded % inhibition for the entries that follow.
// units = %; emit number, no label

// % inhibition lookup, key: 548538 (antisense eT*eA*kG*dT*dG*dG*d[5mC]*dA*dA*dG*dA*dA*d[5mC]*k[5mC]*kA*e[5mC]) [compound 548538]
0

Look up % inhibition: 548558 (antisense eA*eA*k[5mC]*dA*dT*dT*dG*dT*dG*dT*dA*dG*d[5mC]*kT*kG*e[5mC]) [compound 548558]
75

Form field: reported % inhibition of 548545 (antisense e[5mC]*eT*k[5mC]*dT*dT*d[5mC]*dG*d[5mC]*dA*dT*dG*dG*dA*k[5mC]*kA*e[5mC]) [compound 548545]
46

Quick check: % inhibition of 548580 (e[5mC]*e[5mC]*kA*dG*dA*dG*d[5mC]*d[5mC]*dT*dT*dG*dA*dT*k[5mC]*kA*eG; antisense) [compound 548580] ?
36

What value of % inhibition has been reported for the following substance? 548563 (antisense eA*eA*kA*d[5mC]*d[5mC]*dA*dT*dG*dA*dA*dT*dT*dA*kG*kG*eT) [compound 548563]
20

Can you share its % inhibition? I mean this substance: 531231 (eT*eA*eT*e[5mC]*eA*d[5mC]*dT*dG*dT*dA*d[5mC]*dT*dA*dG*dT*eT*eT*e[5mC]*e[5mC]*eT) [compound 531231]
46

* * *

I'd be grateful if you could share measured percent inhibition of PKK mRNA, 0.33 μM for these entries.
Test system: human PKK mRNA
Assay: Dose-dependent antisense inhibition of human PKK in HepaRG cells, 0.11-3.00 uM (Example 6)
Type: cell-based
Conditions: electroporation, 0.33 μM, approx. 16 hours, relative to untreated control cells
Strand notation (5' to 3'): a small letter for the sugar, then the base; units joined by * are phosphorothioate-linked, units joined directly phosphodiester-linked; [ ] holds rarer units or linkages, { } end groups; capitals alone tell only the bases. e = 2'-O-(2-methoxyethyl) (MOE); k = constrained ethyl (cEt); [5mC] = 5-methylcytosine; d = 2'-deoxy (DNA)
Give just the number in %; leave the unit off.

Quick one: percent inhibition of PKK mRNA, 0.33 μM of 548004 (eA*eG*kT*dA*dA*d[5mC]*d[5mC]*dA*dG*dA*dG*d[5mC]*dT*k[5mC]*k[5mC]*e[5mC]; antisense) [compound 548004] ?
47

percent inhibition of PKK mRNA, 0.33 μM lookup needed for 547843 (antisense e[5mC]*eA*k[5mC]*dT*dT*dA*dT*dT*dT*dG*dA*dT*dG*kA*k[5mC]*e[5mC]) [compound 547843] , thanks.
52

// query percent inhibition of PKK mRNA, 0.33 μM value for entry 547942 (eG*eG*kT*dG*dT*dG*d[5mC]*d[5mC]*dA*d[5mC]*dT*dT*dT*k[5mC]*kA*eG; antisense) [compound 547942]
51

Can you look up the measured percent inhibition of PKK mRNA, 0.33 μM of 548583 (eG*eG*kG*dA*dA*dT*dT*dT*dA*dT*dG*d[5mC]*dT*kG*k[5mC]*e[5mC]; antisense) [compound 548583] for me?
46

Recorded percent inhibition of PKK mRNA, 0.33 μM for 547922 (eT*eG*kG*dA*dG*dT*dG*dA*dG*dA*dA*d[5mC]*d[5mC]*k[5mC]*kT*eG; antisense) [compound 547922] , please?
75

I have this substance here, 547979 (antisense eG*eT*k[5mC]*dT*d[5mC]*dT*dT*dG*dG*d[5mC]*dA*dA*dA*k[5mC]*kA*eT) [compound 547979] , and I need its recorded percent inhibition of PKK mRNA, 0.33 μM.
58

So what's the measured percent inhibition of PKK mRNA, 0.33 μM for this one? 548220 (eG*e[5mC]*kA*dG*dA*dA*dA*dT*d[5mC]*d[5mC]*dT*dG*dT*kG*k[5mC]*eA; antisense) [compound 548220]
0

What value of measured percent inhibition of PKK mRNA, 0.33 μM is listed for 548557 (antisense eG*eT*kT*dA*d[5mC]*dT*d[5mC]*dT*dG*dT*dG*dA*dT*k[5mC]*k[5mC]*eA) [compound 548557] ?
47

What value of percent inhibition of PKK mRNA, 0.33 μM has been recorded for this entry: 548070 (e[5mC]*e[5mC]*k[5mC]*dA*dA*d[5mC]*dA*dG*dT*dT*dG*dG*dT*kA*kT*eA; antisense) [compound 548070]
35

Recorded percent inhibition of PKK mRNA, 0.33 μM of 547943 (eT*eG*kG*dT*dG*dT*dG*d[5mC]*d[5mC]*dA*d[5mC]*dT*dT*kT*k[5mC]*eA; antisense) [compound 547943] , please.
70

Request the reported percent inhibition of PKK mRNA, 0.33 μM associated with 548558 (antisense eA*eA*k[5mC]*dA*dT*dT*dG*dT*dG*dT*dA*dG*d[5mC]*kT*kG*e[5mC]) [compound 548558]
61

# query: percent inhibition of PKK mRNA, 0.33 μM of entry 547807 (eG*e[5mC]*kA*dG*dT*dA*dT*dT*dG*dG*dG*d[5mC]*dA*kT*kT*eT; antisense) [compound 547807]
71

// percent inhibition of PKK mRNA, 0.33 μM lookup, key: 548055 (eG*eT*kA*dA*dT*dT*d[5mC]*dA*dA*dA*dG*dG*dA*kG*k[5mC]*e[5mC]; antisense) [compound 548055]
57

Values were extracted from patent US11840686B2.
